meta.source: patent US7612208B2

# ASSAY REMARKS: Evaluation of solid stability (storage 2 weeks; total impurity by HPLC, water content, powder X-ray diffraction)
# Type: physicochemical
# CONDITION: d-2: 40° C., relative humidity 75%, 2 weeks

{"MOLECULE": "CC(=O)O.COc1cc2nccc(Oc3ccc(NC(=O)NC4CC4)c(Cl)c3)c2cc1C(N)=O.CS(=O)(=O)O", "READOUT UNIT": "%", "water content": 0.9}
{"MOLECULE": "CCS(=O)(=O)O.COc1cc2nccc(Oc3ccc(NC(=O)NC4CC4)c(Cl)c3)c2cc1C(N)=O [esylate (Form β)]", "READOUT UNIT": "%", "water content": 2.0}
{"MOLECULE": "COc1cc2nccc(Oc3ccc(NC(=O)NC4CC4)c(Cl)c3)c2cc1C(N)=O.CS(=O)(=O)O [mesylate (Form C)]", "READOUT UNIT": "%", "water content": 0.6}
{"MOLECULE": "COc1cc2nccc(Oc3ccc(NC(=O)NC4CC4)c(Cl)c3)c2cc1C(N)=O.CS(=O)(=O)O [mesylate (Form A)]", "READOUT UNIT": "%", "water content": 0.2}
